Hey, just so you know, these numbers are from patent US20100075917A1.

tested on: HIV-2; assay: Anti-HIV-2 effect in CEM cells; type: cell-based; conditions: First and Second Series, first table; CEM cells; read-out: EC50 HIV-2
property_measured: pEC50
In plain terms, pEC50 is the concentration in mol/L turned into minus its base-10 logarithm.

Reported pEC50 ( C[C@H](Cn1cnc2c(N)ncnc21)OCP(=O)(O)O [Tenofovir, reference compound] ) = 5.59

* * *

system: Moloney sarcoma virus; assay: Inhibition of transformation of mouse embryo C3H/3T3 cells induced by Moloney sarcoma virus; format: cell-based; conditions: C3H/3T3, read-out: EC50 (effective concentration 50%)
property_measured: log10(EC50) (log10 of the value in µM)
Short version: log10 scale, EC50, µM.

Recorded log10(EC50) (compound Cc1cn([C@H]2CC(SSCCCCCCO)[C@@H](CO)O2)c(=O)[nH]c1=O (some centres unmarked) ): 0.92

The compound identified as CCCCSS[C@H]1C[C@H](n2cc(C)c(=O)[nH]c2=O)O[C@@H]1CO [Compound 24, 3′-deoxythymidin-3′-yl butyl disulfide] registered its log10(EC50) at 0.00

The reported value for C=CCSS[C@H]1C[C@H](n2cc(C)c(=O)[nH]c2=O)O[C@@H]1CO [Compound 20, 3′-deoxythymidin-3′-yl allyl disulfide] in terms of log10(EC50) is 0.34

log10(EC50) reported for this compound `CSS[C@H]1C[C@H](n2ccc(N)nc2=O)O[C@@H]1CO` : 1.68

Sure, the documented log10(EC50) for `Cc1cn([C@H]2C[C@H](SSCCO)[C@@H](CO)O2)c(=O)[nH]c1=O` is 0.77

* * *

test system: L1210/0 murine leukemia cells; assay: Cytotoxic effect on L1210/0 cells; assay type: cell-based; conditions: Tables 5 and 7, L1210/0 cells
I'd appreciate it if you could supply cytotoxic effect, L1210/0 values for the items below.

Looking up Cc1cn([C@H]2C[C@H](SSCCN)[C@@H](CO)O2)c(=O)[nH]c1=O.Cl [Compound 27] , I see its cytotoxic effect, L1210/0 listed as 65 ± 9

Reported cytotoxic effect, L1210/0 of Cc1cn([C@H]2C[C@H](SSC(Cl)(Cl)Cl)[C@@H](CO)O2)c(=O)[nH]c1=O [Compound 22] : 45 ± 1

Lab note: measured cytotoxic effect, L1210/0 of C=CCSS[C@H]1C[C@H](n2cc(C)c(=O)[nH]c2=O)O[C@@H]1CO [Compound 20, 3′-deoxythymidin-3′-yl allyl disulfide] was 43 ± 5

cytotoxic effect, L1210/0 measured on Cc1cn([C@H]2CC(SSCCCCCCO)[C@@H](CO)O2)c(=O)[nH]c1=O (stereo partly shown) [Compound 18] = 44 ± 1
